biological target: T1, biotinylated human VWF cysteine knot (CK) domain construct (human, UniProt P04275 2724-2813, biotinylated in vitro (BirA) on the biotinylation tag; one N-glycan); assay: SPR, scFv captured via anti-SV5, CK domain injected, pH 5.5, apparent Kd;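 further: scFvs from crude yeast supernatants captured on chip-bound anti-SV5 antibody, Kd computed as koff divided by kon, dimeric CK construct likely makes affinity appear higher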
T1 construct: Expressed in HEK293 EBNA cells; disulfide-linked homodimer; also called human VWF CK; human VWF CK domain; not shown: in vitro biotinylation tag, HRV-3C site and 3 VWF residues before the CK domain
Each item that follows carries a reported Kd.
Hey, just the number and the unit after it is fine.

The following binders have reported results that may help.
* 8226_Lib8_scFv (scFv, VH-linker-VL; not shown: C-terminal 3xFLAG and SV5 tags) scFv: EVQLVESGGGLVQPGRSLRLSCAASGFNFHNYDMHWVRQAPGKGLEWVSAISGGAVSTDYADSVEGRFTISRDNAKNSLYLQMNSLRAEDTAVYYCARSSWYGGQIDFWGQGTLVTVSSSGGSTITSYNVYYTKLSSSGTDIQMTQSPSSLSASVGDRVTITCRASQDISGWLAWYQQKPGKAPKLLIYAASSLQDGVPSRFSGSGSGTDFTLTISSLQPEDVATYYCQQSYRIPSTFGGGTKVEIK | 1.38 nM
* 9301_Lib8_scFv (scFv, VH-linker-VL; not shown: C-terminal 3xFLAG and SV5 tags) scFv: EVQLVESGGGLVQPGRSLRLSCAASGFNFHNYDMHWVRQAPGKGLEWVSAISGSGYTADYADSVEGRFTISRDNAKNSLYLQMNSLRAEDTAVYYCAKSHSSGWSSAFDIWGQGTMVTVSSSGGSTITSYNVYYTKLSSSGTDIQMTQSPSSLSASVGDRVTITCRASQTIGYWLAWYQQKPGKAPKLLIYDASVPESGVPSRFSGSGSGTDFTLTISSLQPEDVATYYCQQTLSSPWTFGGGTKVEIK | 0.039 nM

Determine its reported Kd: 16_Lib8_scFv (scFv, VH-linker-VL; not shown: C-terminal 3xFLAG and SV5 tags) scFv: EVQLVESGGGLVQPGRSLRLSCAASGFRFDEYDMHWVRQAPGKGLEWVSAISSESASIDYADSVEGRFTISRDNAKNSLYLQMNSLRAEDTAVYYCARDGAYGDYFDYWGQGTMVTVSSSGGSTITSYNVYYTKLSSSGTDIQMTQSPSSLSASVGDRVTITCRASQDIKSWLAWYQQKPGKAPKLLIYGASTLQSGVPSRFSGSGSGTDFTLTISSLQPEDVATYYCQQSYSAPYTFGGGTKVEIK
1.05 nM
